Test: yeast display, Sf9 membrane polyspecificity reagent, FACS + sequencing; frameworks hold sequencing errors
Measure: polyreactivity (PSR sort gate)

QVQLVESGGGLVQAGGSLRLSCAAYGRIFFYYVMGWYRQAPGNERELVAGITRGGISNYADSVKGRFTISRDNAKNTVYLQMNSLKPEDTAVYYCAAAYYRDSDRRYNYWGQGTQVTVSS	high polyreactivity
QVQLVESGGGLVQAGGSLRLSCAASGIIFYRYAMGWYRQAPGKERELVAAITWRGGSPYYADSVKGRFTISRDNAKNTVYLQMNSLKPEDTAVYYCAAESYWTATYTFDYWGQGTQVTVSS	high polyreactivity

---

Test: yeast display, Sf9 membrane polyspecificity reagent, FACS + sequencing; frameworks hold sequencing errors
Measure: polyreactivity (PSR sort gate)

Worked set:
QVQLVESGGGLVQAGGSLRLSCAASGRTFWFYGMGWYRQAPGKERELVADITSGGGTYYADSVKGRFTISRDNAKNTVYLQMNSLKPEDTAVYYCNAYKTHVVPATYDSEEYWGQGTQVTVSS	low polyreactivity
QVQLVESGGGLVQAGGSLRLSCAASGRIFVGYAMGWYRQAPGKERELVAAITGSGGGTYYADSVKGRFTISRDNAKNTVYLQMNSLKPEDTAVYYCAATGYLKVRGYYAWHFYYWGQGTQVTVSS	high polyreactivity
QVQLVESGGGLVQAGGSLRLSCAASGRIFLYYNMGWYRQAPGKERELVADITWRGGSTYYADSVKGRFTISRDNAKNTVYLQMNSLKPEDTAVYYCNAVSVSSKRSDYWGQGTQVTVSS	low polyreactivity
QVQLVESGGGLVQAGGSLRLSCAASGSIFDSYAMGWSRQAPGKERELVAAISWSGGSTYYADSVKGRFTISRDNAKNTVSLQMNSLKPEDTAVYYCNTDWADYYYYTDYDYWGQGTQVTVSS	high polyreactivity
QVQLVESGGGLVQAGGSLRLSCAASGRIVSKYALGWYRQAPGKERELVAAISNGGSTNYADSVKGRFTISRDNAKNTVYLQMNSRKPEDTAVYYCAAGWPARYEEGYNYWGQGTQVTVST	low polyreactivity
QVQLVESGGGLVQAGGSLRLSCAASGITLYRYAMGWYRQAPGKERELVADISSGGGTTYYADSVKGRFTISRDNAKNTVYLQMNSLKPEDTAVYYCAADYGFRYPLYDYWGQGTQVTVSS	low polyreactivity

Prompt: State, in one line, measured polyreactivity (PSR sort gate) of "QVQLVESGGGLVQAGGILRLSCAASGSTIEFNAMGWYRPAPGKERELVAAISGSGASTYYADSVKGRFTISRDNAKNTVYLQMNSLTPEDTAVYYCNADSLYYDYQTVVVQALDYWGQGTQVTVSS"
Completion: low polyreactivity

Prompt: Look up and report measured polyreactivity (PSR sort gate) for this entry: "QVQLVESGGGLVQAGGSLRLSCAASGSIFRGYAMGWYRQAPGKERELVAAINSSGGRTYYADSVKGRFTISRDNAKKTVYLQMNSLKPEDTAVYYCNARSKYPSYFSSMGYWGQGTQVTVSS"
Completion: high polyreactivity

Prompt: Give the reported value of polyreactivity (PSR sort gate) for this record: "QVQLVESGGGLVQAGGSLRLSCAASVRIFSGYAMGWYRQAPGKERELVAAISQRGGSTTYADSVKGRFTISRDNAKNTVYLQMNSLKPEDTAVYYCAKRYTYPSGYDYWGQGTQVTVSS"
Completion: low polyreactivity

Prompt: Identify the reported polyreactivity (PSR sort gate) for the following entry. "QVQLVESGGGLVQAGGSLRLSCAASGSTFWYYTMGWYRQAPGKERELVAAITESGGGTYYADSVKGRFTISRDNAKNTVYLQMNSLKPEDTAVYYCAAYSRFTSDYWGQGTQVTVSS"
Completion: high polyreactivity

Prompt: Let me know recorded polyreactivity (PSR sort gate) for "QVQLVESGGGLVQAGGSLRLSCAASGIILGYYAMGWYRQAPGKERELVAAITRSGGRTYYADSVKGRFTISRDNAKNTVYLQMNSLKPEDTGVYYCAADDPYTPQYPDVTYDYWGQGTQVTVSS" , thanks.
Completion: high polyreactivity

Prompt: Consider the sequence "QVQLVESGGGLVQAGGSLRLICAASGFIFPQNAMGWYRQAPGKERELLAAISKRGGSTYYADSVKGRFTISRDYAKNTVYLQMNSLKPEDTAVYYCAAGYRTRRGLGYYYWGQGTQVTVSS" . State its measured polyreactivity (PSR sort gate).
Completion: high polyreactivity

Prompt: // fetch polyreactivity (PSR sort gate) given entry "QVQLVESGGGLVHAGGSLRLSCAASGSTFGDNAMRLYRQAPGKERELVAVISTAGSTYYADSVKGRFTISRDNAKNTVYLQMNSLKPEDTAVYYCAAAYYVWLYGFWYRRYDYWGQGTQVTVSS"
Completion: low polyreactivity

Prompt: Determine its reported polyreactivity (PSR sort gate): "QVQLVESGGGLVQAGGSLRLSCAASGFTFWTNAMGWYRQAPGKERELVAAITSSGGTTYYADSVKGRFTISRDNAKNTVYLQMNSLKPEDTAVYYCAAELGGYVASYYYPGYDYWGQGTQVTVSS"
Completion: low polyreactivity

Prompt: Give the value of polyreactivity (PSR sort gate) reported for the following: "QVQLVESGGGLVQAGGSLRLSCAASGSTFGSYTMGWYRQPPGKERELVAAINWSGGNTYYADSVKGRFTISRDNAKNTVYLQMNSLKPEDTAVYYCAAAFYIYGFEGDYWGQGTQVTVSS"
Completion: low polyreactivity

Prompt: Look up polyreactivity (PSR sort gate) of "QVQLVESGGGLVQAGGSLRLSCAASGFTFGSYAMGWYRQAPGKERELVAVITRSGRTNYADSVKGRFTISRDNAKNTVYLQMNSLKPEDTAVYYCNADDVDDEVSPDLTEMDYWGQGTQVTVSS" and report it.
Completion: low polyreactivity

Prompt: Quickly give me recorded polyreactivity (PSR sort gate) for "QVQLVESGGGIVQAGGSLRLSCAASGFNFLRYAMGWYRQAPGKERELVAAISTSGGSTSYADSVKGRFTISRDNAKNTVYLQMNSLNPEDTAVYYCNAVLYKVSISEYDYWGQGTQVTVSS"
Completion: high polyreactivity

---

Assay: yeast display, Sf9 membrane polyspecificity reagent, FACS + sequencing; frameworks hold sequencing errors
Measure: polyreactivity (PSR sort gate)

QVQLVESGGGLVQAGGSLRLSCAASGSIFWYNAKGWYRQAPGKERELVAAINWGGGSTYYADSVKGRFTISRDNAKNTVYLEMNSLTPEDTAVYYCNADQQVDHATVSQRDGYDYWGQGTQVTVSS	low polyreactivity
QVQLVESGGGLVQAGGSLRLSCAASGSTYYTYAMGWYRQAPGKERELVAAISWSGGTTYYADSVKGRFTISRDNAKNTVSLQMNSLKPEATAVYYCASDRDGILKANVYWGQCTQVTVSS	low polyreactivity

---

Assay: yeast display, Sf9 membrane polyspecificity reagent, FACS + sequencing; frameworks hold sequencing errors
Measure: polyreactivity (PSR sort gate)

Below, 5 sequences whose answers are already recorded.
QVQLVESGGGLVQAGGSLRLSCAASGSTLAGYAMGWYRPAPGKERELVAAIDWTGGSTTYADSVKGRFTISRDNAKNTVYLQMNSLKPEDTAVYYCNVDLGVNGDYWGQGTQVTVSS	low polyreactivity
QVQLVESGGGLVQAGGSLCLSCAASGIFVYNAMVWYRQAPGKEREFVAAINKSGASTFYADSVKGRFTISRDNAKNTVYLQMNSLKPEDTAVYYCRERDYWGQGTQVTVSS	low polyreactivity
QVQLVESGGGLVQAGGSLRLSCAASGSIFTANAMGWYRQAPGKERELVAAISRSGGRTYYADSVKGRFTISRDNAKNTVYLQMNSLKPEDTAVYYCNVGRFNTSGYDYWGQGTQVTVSS	high polyreactivity
QVQLVESGGGLVQAGGSLRLTCAASGRTFNPYAMGWYRQAPGKERELVARIRGTGVSTYYADSVKGRFTISRDYAKNTVYLQMNSLKPEDTDVYYINAVATPVSDRWSYLSHGWYYYWGHGTQVTVSS	high polyreactivity
QVLLVESGGGLVQAGGSLRLSCAASGSTIRYYAMGWYRQAPGKERELVAAISWRGGSTYYADSVKGRFTISRDNAKYTVYLQMNSLKPEDTAVYYCAVEAVAYGFFHYDYWGQGTQVTVSS	high polyreactivity

Prompt: // Input: "QVQLVESGGGLVQAGGSLRLSCAASGFTFGFYAMGRYRQAPGKERELVARISYSGGSTYYADSVKGRFTISRDKAKNTVYLQMNSLKPEDTAVYYCNRGYRRLQEDYWGQGTQVTVSS" . Output its polyreactivity (PSR sort gate) only.
Completion: high polyreactivity

Prompt: Quick one: give measured polyreactivity (PSR sort gate) for "QVQLVESGGGLVQAGGSLRLSCAASGFIFLIYAIGWYRQAPGTERELVATIRYSGGRTYYADSVKGRFTISRDNAKNTVYLQMNSLKPEDTAVYYCAARSVWFSGQGRMNYWGQGTQVTGSS"
Completion: high polyreactivity

Prompt: Quickly give me recorded polyreactivity (PSR sort gate) for "QVQLVESGGGLVQAGASLRLICAASGITFDWYGMGWYRHAPGKERELVATITGSGDSTNYADSVKGRFTISRDNAQNTVYLQMNSLKPEDTAVYYCAAPTSYDQFGYEYWGQGTIVTVSS"
Completion: low polyreactivity

Prompt: Tell me measured polyreactivity (PSR sort gate) for "QVQLVESGGGLVQAGGSLRLSCAPSGRIFSWNAMGWYRQAPGKERELVAAISVRGGSTYADSVKGRFTISRDNAKNTVYLQMNSLKPEDTAVYYCAKTYYPYRLGEGQYEYDYWGQGTQVTVSS" please.
Completion: low polyreactivity

Prompt: Please report the measured polyreactivity (PSR sort gate) for "QVQHVESVGGLVQAGGSLRLSCAASGFIFRRYVMGWNRQAPGKERELVAAISYGGGSTYYADSVKGRFTISRDNAKNTVYLQMNCLKPEDTAVYYCNAVSYNLAAYEYWGQGTQVTVSS"
Completion: high polyreactivity

Prompt: Return the recorded polyreactivity (PSR sort gate) value; entry: "QVQLVESGGGLVQAGGSLRLSCAASGGIFKAYAMGWYRQAPGKERELVAVITIGGRTTYADSVKGRFTISRDNAKNTVYLQMNSLKPEDTAVYYCAKTNYNWLSTAEHDYWGQGTQVTVSS"
Completion: low polyreactivity

FYI, the data here is from the nanobody polyreactivity screen of Harvey et al. (2022).
